- METHOD NOTES: AUC (0 to t) in C57BL/6 mouse at 5 mg/kg administered intraarterially by LC-MS/MS analysis
- Type: ADME, organism-based
- Design: dose 5 mg/kg, route intra-arterial
- CONDITION CONTEXT: plasma
VALUE KIND: AUC(0-t) (µM·h)

>>> print(df.to_string())
                      smiles_representation  observed_value
0  O=S(=O)(O)Oc1cc(O)cc(/C=C/c2ccc(O)cc2)c1            4.05

----------
- METHOD NOTES: Volume of distribution at steady state in C57BL/6 mouse at 15 mg/kg administered intraarterially by LC-MS/MS analysis
- Assay type: ADME, organism-based
- Set-up: dose 15 mg/kg, route intra-arterial
- CONDITION CONTEXT: in vivo, read-out: Vdss
VALUE KIND: Vd (L/kg)

>>> df
                                   molecule  observed_value
0  Oc1ccc(/C=C/c2cc(O)cc(O)c2)cc1 [RESVERATROL]            37.6

Attribution: ChEMBL document CHEMBL3526107
